test system: human APOE RNA; assay: Activity in APOE C57BL/6NTac-Apoeem7250 knock-in mice, single ICV bolus, 20 weeks (Example 13); assay type: in vivo; conditions: spinal cord; single ICV bolus 300 μg; 20 weeks post treatment; normalized to mouse Ppia
Strand notation (5' to 3'): a small letter for the sugar, then the base; units joined by * are phosphorothioate-linked, units joined directly phosphodiester-linked; [ ] holds rarer units or linkages, { } end groups; capitals alone tell only the bases. [ms] = mesyl phosphoramidate linkage; e = 2'-O-(2-methoxyethyl) (MOE); k = constrained ethyl (cEt); [5mC] = 5-methylcytosine; d = 2'-deoxy (DNA)
Below, each of the substances is paired with its reported APOE RNA (% control) Spinal Cord value.
Number only, in % control; omit the unit.

In the examples that follow, each entry is paired with its recorded APOE RNA (% control) Spinal Cord.
Query APOE RNA (% control) Spinal Cord on human APOE RNA for 1757571 (eA*e[5mC]eTeT*eG*kG*dT*dG[ms]dA[ms]dA[ms]dT*d[5mC]*dT*dT*dT*dA[ms]eT*eT*eA*eA; antisense) [Compound 1757571]
73

Query APOE RNA (% control) Spinal Cord on human APOE RNA for 1757570 (eA*e[5mC]eTeTkG*dG*dT*dG*dA*dA*dT*d[5mC]*dT*dT*dT*kAkTeT*eA*eA; antisense) [Compound 1757570]
48

Query APOE RNA (% control) Spinal Cord on human APOE RNA for 1785599: modified oligonucleotide complementary to human APOE RNA (k[5mC]*kT*kT*dG[ms]dG[ms]dT[ms]dG[ms]dA[ms]dA[ms]dT[ms]d[5mC]*dT*dT*dT*dA*dT*kT*kA*dA[ms]kA; antisense) [compound 1785599]
20

Query APOE RNA (% control) Spinal Cord on human APOE RNA for 1778110: 6-10-4 MOE gapmer ACTTGGTGAATCTTTATTAA, linkages soooosszzsssssszoss (eA*e[5mC]eTeTeGeG*dT*dG[ms]dA[ms]dA*dT*d[5mC]*dT*dT*dT*dA[ms]eTeT*eA*eA) [compound 1778110]
35

Shift focus to the following entry.
Query APOE RNA (% control) Spinal Cord on human APOE RNA for 1785616 (k[5mC]*dT[ms]dT[ms]kG*dG[ms]kT*dG[ms]dA[ms]dA[ms]dT*d[5mC]*dT*dT*dT*dA*dT[ms]kT*kA*dA[ms]kA; antisense) [Compound 1785616]
57
